- assay: LTI-291-003 multiple dose study in GBA-PD: plasma and CSF pharmacokinetics
- Assay type: in vivo, human
- test-parameters: human, plasma, oral, 10 mg, 10 mg daily, dose 1, GBA-PD, geometric mean; read-out: AUC0-last
recorded-endpoint: AUC(0-t) (ng·h/mL)
Answer format: numeric, ng·h/mL implied, no suffix.

Prompt: Item CCCCCO[C@H]1CC[C@H](NC(=O)c2cnn3c(C)cc(C)nc23)CC1 [Compound A] has what recorded AUC(0-t)?
Completion: 1090

###

- assay: LTI-291-002 multiple ascending dose study: plasma and CSF pharmacokinetics
- Type: in vivo, human
- test-parameters: human, plasma, oral, 30 mg, 30 mg daily, dose 14, geometric mean; read-out: AUC0-last
recorded-endpoint: AUC(0-t) (ng·h/mL)
Answer format: numeric, ng·h/mL implied, no suffix.

Prompt: Item `CCCCCO[C@H]1CC[C@H](NC(=O)c2cnn3c(C)cc(C)nc23)CC1` has what recorded AUC(0-t)?
Completion: 45000

Taken from patent US20260240851A1.
